Biological target: T1, human DLL3 (human, UniProt Q9NYJ7 27-492, limits assumed)
T1 construct: also called hDLL3; DLL3 protein
T1 sequence: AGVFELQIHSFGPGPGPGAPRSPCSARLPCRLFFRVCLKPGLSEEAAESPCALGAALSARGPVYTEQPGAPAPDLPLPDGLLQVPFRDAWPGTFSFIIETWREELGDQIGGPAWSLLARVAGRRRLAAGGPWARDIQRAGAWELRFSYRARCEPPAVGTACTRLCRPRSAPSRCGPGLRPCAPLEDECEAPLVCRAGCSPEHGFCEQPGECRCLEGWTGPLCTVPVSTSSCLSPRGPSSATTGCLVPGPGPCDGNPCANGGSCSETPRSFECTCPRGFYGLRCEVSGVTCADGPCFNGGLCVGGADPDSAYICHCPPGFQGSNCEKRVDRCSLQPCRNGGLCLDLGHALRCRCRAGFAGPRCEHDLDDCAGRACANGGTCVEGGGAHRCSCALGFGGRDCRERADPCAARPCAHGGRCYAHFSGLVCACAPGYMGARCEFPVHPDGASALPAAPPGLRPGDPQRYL
Assay: screen on immobilized hDLL3 or h293-hDLL3 cells

Binder | binding result
SC16.107 (antibody, V domains shown, murine mAb) VH: EVQLQQSGPELVKPGASVKMSCKASGYTFTNYVMHWVKQKPGQGLEWIGYINPYNDGTKYNEKFKGKATLTSDKSSTTAYMALSSLTSEDSAVYYCAVAYYSNWGFAYWGQGTLVTVSA VL: DIVMTQSHKFMSTSVGDRVSITCKASQDVNTAVGWYQQKPGQSPKLLIYSASYRYTGVPDRFTGSGSGTDFTFTISSVQAEDLAVYYCQQHYSSPYTFGGGTKVEIK | binds
SC16.34 (antibody, V domains shown, murine mAb) VH: QIQLVQSGPELKRPGETVKISCKASGYTFTNYGMNWVKQAPGKGLKWMGWINTYTGDPTYADDFKGRFAFSLETSASTAYLQINNLKNEDTATYFCARIGGNSPSDYWGQGTSLTVSS VL: SIVMTQTPKFLLVSAGDRVTITCKASQSVSNDVAWYQQKPGQSPKLLIYYASNRYSGVPDRFTGSGYGTDFTFTISTVQAEDLAVYFCQQDYSSPWTFGGGTKLEIK | binds
SC16.19 (antibody, V domains shown, murine mAb) VH: EVQLQQSGAELVRPGASVKLSCTASGFNIKDSLLHWVKQRPEKGLEWIGWIDPEDGETKYAPNFQDKATITTDSSSNTAYLQLISLTSVDTAIYYCAYGNYVRHFDYWGQGTTLTVSS VL: DIQMTQSPSSLSASLGGKVTFTCKASQDIHKYVAWYQHKPGKGPRLLIHYTSTLQPGISSRFSGSGSGRDYSFSISNLEPEDIATYYCLQYNNLYTFGGGTKLEIK | binds

Data origin: patent US20190201542A1
